target: SMARCA2 (Homo sapiens); experiment: SMARCA2 Western blot degradation in MV4-11 cells; assay type: cell-based; design: SMARCA2/SMARCA4 protein degradation selectivity in MV4-11 cells; endogenous in cells; host or cells: MV4-11; settings: SMARCA2/4 selectivity, MV4-11 cells
Sequence (P51531 whole entry): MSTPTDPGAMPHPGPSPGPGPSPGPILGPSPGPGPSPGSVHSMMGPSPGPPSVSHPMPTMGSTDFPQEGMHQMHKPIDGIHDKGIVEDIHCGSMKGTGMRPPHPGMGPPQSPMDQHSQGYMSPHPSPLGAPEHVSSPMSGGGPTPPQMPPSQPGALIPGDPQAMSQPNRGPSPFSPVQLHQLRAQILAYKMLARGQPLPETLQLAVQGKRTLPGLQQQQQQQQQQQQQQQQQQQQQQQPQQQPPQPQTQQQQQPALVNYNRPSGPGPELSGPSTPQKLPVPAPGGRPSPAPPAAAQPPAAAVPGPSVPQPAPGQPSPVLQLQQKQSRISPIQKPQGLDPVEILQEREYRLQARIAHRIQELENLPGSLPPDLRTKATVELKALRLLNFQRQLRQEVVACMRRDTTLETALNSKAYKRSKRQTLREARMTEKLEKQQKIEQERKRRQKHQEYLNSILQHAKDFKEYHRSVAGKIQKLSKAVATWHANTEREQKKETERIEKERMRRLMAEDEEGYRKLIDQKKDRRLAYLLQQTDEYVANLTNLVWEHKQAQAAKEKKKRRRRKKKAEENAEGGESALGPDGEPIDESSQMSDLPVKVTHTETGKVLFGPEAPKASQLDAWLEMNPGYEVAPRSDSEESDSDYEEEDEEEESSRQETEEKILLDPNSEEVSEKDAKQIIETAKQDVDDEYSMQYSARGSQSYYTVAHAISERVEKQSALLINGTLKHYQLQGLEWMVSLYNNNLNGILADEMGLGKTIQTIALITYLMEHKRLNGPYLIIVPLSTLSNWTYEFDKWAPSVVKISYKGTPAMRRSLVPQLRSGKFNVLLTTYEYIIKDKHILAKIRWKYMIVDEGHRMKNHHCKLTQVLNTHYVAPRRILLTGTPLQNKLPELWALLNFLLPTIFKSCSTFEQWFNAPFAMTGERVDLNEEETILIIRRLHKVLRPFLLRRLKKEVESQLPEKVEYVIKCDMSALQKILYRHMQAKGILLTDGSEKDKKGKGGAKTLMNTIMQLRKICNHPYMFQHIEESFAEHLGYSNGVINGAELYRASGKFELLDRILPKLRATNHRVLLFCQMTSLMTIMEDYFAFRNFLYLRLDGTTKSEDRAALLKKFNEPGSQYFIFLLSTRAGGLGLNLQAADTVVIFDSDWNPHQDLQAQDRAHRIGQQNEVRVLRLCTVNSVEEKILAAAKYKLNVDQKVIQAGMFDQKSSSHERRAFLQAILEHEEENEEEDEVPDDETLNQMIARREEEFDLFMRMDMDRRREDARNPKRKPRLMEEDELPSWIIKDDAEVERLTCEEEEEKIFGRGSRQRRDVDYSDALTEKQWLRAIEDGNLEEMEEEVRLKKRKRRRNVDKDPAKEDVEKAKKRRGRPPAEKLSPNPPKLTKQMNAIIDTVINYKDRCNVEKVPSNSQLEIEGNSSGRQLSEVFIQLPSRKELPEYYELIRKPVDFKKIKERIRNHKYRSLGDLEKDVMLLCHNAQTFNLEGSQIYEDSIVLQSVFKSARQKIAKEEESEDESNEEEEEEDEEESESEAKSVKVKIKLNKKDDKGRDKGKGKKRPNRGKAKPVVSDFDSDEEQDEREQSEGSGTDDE
outcome measure: Selectivity in MV411

>>> result("Cc1ncsc1-c1ccc([C@H](C)NC(=O)[C@@H]2C[C@@H](O)CN2C(=O)[C@@H](NC(=O)Cc2ccc(CCCC(=O)N3CCN4c5cc(-c6ccccc6O)nnc5NC[C@H]4C3)cc2)C(C)(C)C)cc1 (single isomer, unassigned)")
"C (C (10-100 fold))"
>>> result("C#Cc1ccc(CNC(=O)[C@@H]2C[C@@H](O)CN2C(=O)[C@@H](NC(=O)N2CCN(CC3CCN([C@H]4CC[C@H](N5CCN6c7cc(-c8ccccc8O)nnc7NC[C@H]6C5)CC4)CC3)CC2)C(C)(C)C)cc1")
"C (C (10-100 fold))"
